Biological target: T1, wildtype feline IL-31 protein (Feline_IL31_wildtype) (feline)
T1 construct: Full length feline IL-31 with C-terminal His tag, secreted from ExpiCHO cells; also called fIL-31
T1 chain: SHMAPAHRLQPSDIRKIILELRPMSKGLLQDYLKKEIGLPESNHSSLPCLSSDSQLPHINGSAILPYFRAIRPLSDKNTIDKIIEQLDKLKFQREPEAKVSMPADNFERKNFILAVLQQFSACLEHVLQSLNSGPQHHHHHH
Assay: Biacore, feline IL-31 chip, mAb 100 nM, share of points within parent mean +/-3 SD
Set-up: key: % of mutant data points within parent mAb mean ±3 SD
Recorded metric: Binding Similarity score
One number for each entry.

For orientation, consider the following solved cases.
INSERT INTO measurements (binder, recorded_result) VALUES
  ('A13 (antibody, V domains shown) VH: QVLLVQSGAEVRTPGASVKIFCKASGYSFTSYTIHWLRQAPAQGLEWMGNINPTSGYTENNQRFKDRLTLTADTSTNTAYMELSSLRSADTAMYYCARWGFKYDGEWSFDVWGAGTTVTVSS VL: EIQMTQSPSSLSASPGDRVTITCRASQGISIALSWYQQKPGNIPKVLINKASNLHIGVPSRFSGSGSGTDFTLTISSLEPEDAATYYCLQSQTYPLTFGGGTKLEIK', 2.4),
  ('A03 (antibody, V domains shown, sample ID reads A03 although it stands between A07 and A09) VH: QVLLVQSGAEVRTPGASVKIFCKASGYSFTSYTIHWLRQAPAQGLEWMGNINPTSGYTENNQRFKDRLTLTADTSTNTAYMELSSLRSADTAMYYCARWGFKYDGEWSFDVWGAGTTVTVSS VL: EIQMTQSPSSLSASPGDRVTITCRASQAISIWLSWYQQKPGNIPKVLINKASNLHIGVPSRFSGSGSGTDFTLTISSLEPEDAATYYCLQSQTYPLTFGGGTKLEIK', 58);

# input for lookup
Returns the measured Binding Similarity score for the input binder. Input: A18 (antibody, V domains shown) VH: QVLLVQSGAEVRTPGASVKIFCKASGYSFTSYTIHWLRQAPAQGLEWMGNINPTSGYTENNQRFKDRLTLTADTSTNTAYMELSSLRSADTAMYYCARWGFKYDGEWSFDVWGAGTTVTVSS VL: EIQMTQSPSSLSASPGDRVTITCRASQGISIWLSWYQQKPGNIPKVLINKASNAHIGVPSRFSGSGSGTDFTLTISSLEPEDAATYYCLQSQTYPLTFGGGTKLEIK 100
